System: ATP;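 further: ATP exposure 15 min at 22 °C before imaging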
MEASUREMENT_DESCRIPTION: switch fluorescence ratio, 500 uM ATP over buffer (Cy3 cluster intensity, sum of 5 cycles each) (fold (ratio)); higher = stronger signal-on switching upon ATP binding; sequences stand for … in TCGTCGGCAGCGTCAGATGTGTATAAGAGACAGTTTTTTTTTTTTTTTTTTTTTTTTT…TC
EXPERIMENTAL_SETUP: aptamer strand: ATP DNA aptamer (quencher-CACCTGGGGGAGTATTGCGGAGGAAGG + anchor), 100 nM annealed; ATP concentration: 500 uM
MEASUREMENT_LABEL: switch fluorescence ratio
Number only, please.

Consider the worked cases shown below.
CGCTAGGGGG	1.06
CAAATGGTCT	1
TAAATGAATT	1.05
GACCTAAGAC	1.13
CTTTTGGGGG	0.991

Can you look up the measured switch fluorescence ratio of ATGTTTTGGG for me? 1.01

Can you look up the measured switch fluorescence ratio of TATGTTAAAG for me? 0.996

Can you look up the measured switch fluorescence ratio of GTGAAAAGGC for me? 0.986

Can you look up the measured switch fluorescence ratio of GTTGATCTGG for me? 1.01

Can you look up the measured switch fluorescence ratio of TTACGATGGT for me? 1
